Checkbox rule: melting point lower than 100 °C = fulfilled; melting point not lower than 100 °C = not fulfilled.

Ask | A record lists O=C(O)Cc1cc(O)ccc1O [2,5-dihydroxyphenylacetic_acid] . Is its melting point below 100 °C?
Reply | not fulfilled

Ask | A record lists Cc1c[nH]c2ccccc12 . Is its melting point below 100 °C?
Reply | fulfilled

Ask | A record lists CCC1(C(C)C)C(=O)NC(=O)NC1=O . Is its melting point below 100 °C?
Reply | not fulfilled

Ask | A record lists CC(CC1CC(=O)c2c3c(c4ccccc4c2O1)OC1CC(=O)OC31)O[Si](C)(C)C(C)(C)C (stereo unspecified) . Is its melting point below 100 °C?
Reply | not fulfilled

Ask | A record lists CCOc1ccc(NC(C)=O)cc1 [4'-ethoxyacetanilide] . Is its melting point below 100 °C?
Reply | not fulfilled

Ask | A record lists Brc1cccc(Br)c1 . Is its melting point below 100 °C?
Reply | fulfilled

* * *

Checkbox rule: melting point lower than 100 °C = True; melting point not lower than 100 °C = False.

Use the examples below as a reference point.
[[record]]
compound = "COc1cc(C=O)cc(OC)c1 [3,5-dimethoxybenzaldehyde]"
category_label = "True"

[[record]]
compound = "Oc1ccccc1C=Nc1ccccc1 [salicylideneaniline]"
category_label = "True"

[[record]]
compound = "C=Cc1ccccc1 [Styrene]"
category_label = "True"


Ask | A record lists N#Cc1ccc(Oc2ccccc2)cc1 [4-phenoxybenzonitrile] . Is its melting point below 100 °C?
Reply | True

Ask | A record lists Cn1c(=O)c2nc[nH]c2n(C)c1=O [Theophylline] . Is its melting point below 100 °C?
Reply | False

Ask | A record lists Oc1ccc(OCc2ccccc2)cc1 [4-benzyloxyphenol] . Is its melting point below 100 °C?
Reply | False

Ask | A record lists Cc1ccc(CO)cc1 [4-methylbenzyl_alcohol] . Is its melting point below 100 °C?
Reply | True

Ask | A record lists O=C1C(=O)c2ccccc2-c2ccccc21 [9,10-phenanthrenequinone] . Is its melting point below 100 °C?
Reply | False

Ask | A record lists CCCCCCCCCCCCS [1-dodecanethiol] . Is its melting point below 100 °C?
Reply | True

Ask | A record lists O=C(O)/C(=C/c1ccccc1)c1ccccc1 [alpha-phenylcinnamic acid] . Is its melting point below 100 °C?
Reply | False

Ask | A record lists O=C(c1ccccc1)c1cccs1 [Phenyl(2-thienyl)methanone] . Is its melting point below 100 °C?
Reply | True

Ask | A record lists Cc1ccccc1/N=N/c1ccc(/N=N/c2c(O)ccc3ccccc23)c(C)c1 . Is its melting point below 100 °C?
Reply | False

Ask | A record lists CC(C)Oc1ccc2c(=O)c(-c3ccccc3)coc2c1 [ipriflavone] . Is its melting point below 100 °C?
Reply | False

Ask | A record lists Fc1ccc(Br)cc1 [1-bromo-4-fluorobenzene] . Is its melting point below 100 °C?
Reply | True

Ask | A record lists CCc1cc2cc(OC)c(OC)cc2c(Cc2ccccc2)n1 [moxaverine] . Is its melting point below 100 °C?
Reply | True

Ask | A record lists O=[N+]([O-])c1ccc(Oc2ccc(Cl)cc2Cl)cc1 [2,4-Dichloro-1-(4-nitrophenoxy)benzene] . Is its melting point below 100 °C?
Reply | True

Ask | A record lists N#Cc1cc(I)c(O)c(I)c1 [3,5-diiodo-4-hydroxybenzonitrile] . Is its melting point below 100 °C?
Reply | False

Ask | A record lists COc1cc(C(=O)O)cc(OC)c1O [syringic acid] . Is its melting point below 100 °C?
Reply | False

Ask | A record lists Cc1ccc(/C=C(\C(N)=O)c2nc3ccccc3s2)cc1 . Is its melting point below 100 °C?
Reply | False

Ask | A record lists O=C(CBr)c1cccs1 [2-(bromoacetyl)thiophene] . Is its melting point below 100 °C?
Reply | True

Ask | A record lists O=C(O)CCCc1ccccc1 [4-phenylbutyric acid] . Is its melting point below 100 °C?
Reply | True

Ask | A record lists O=Cc1ccc(I)cc1 [p-iodobenzaldehyde] . Is its melting point below 100 °C?
Reply | True

Ask | A record lists CNCC(O)c1ccccc1 (centres undefined) [2-(Methylamino)-1-phenylethanol] . Is its melting point below 100 °C?
Reply | True

Ask | A record lists OB(O)c1cccc(-c2ccccc2)c1 [biphenyl-3-boronic acid] . Is its melting point below 100 °C?
Reply | False

* * *

Field: melting point. Provide a value for each of the compounds that follow.
Numbers only, in °C.

Below are some compounds; for each one, tell me its melting point.
1. O=C1OC(=O)C23Cc4ccccc4CC12Cc1cc2c(cc1C3)CC2 (stereo unspecified)
2. Nc1ccc(Br)cc1Br [2,4-dibromoaniline]

Reply |
[250, 80]

Below are some compounds; for each one, tell me its melting point.
1. O=C(O)Cc1ccccc1Nc1c(Cl)cccc1Cl [diclofenac]
2. ClC(Cl)Cl [trichloromethane]
3. CCN(CC)C(=S)SSC(=S)N(CC)CC [disulfiram]
4. CCCCCS [1-pentanethiol]
5. Nc1ncc(Br)cn1 [2-amino-5-bromopyrimidine]
6. Nc1cc([N+](=O)[O-])ccc1O [2-amino-4-nitrophenol]
7. O=C1[C@@H]2[C@H](C(=O)N1O)[C@@H]1C=C[C@H]2C1 [endo-n-hydroxy-5-norbornene-2,3-dicarboximide]
8. N=C(N)NCC1COc2ccccc2O1 (stereo unspecified) [guanoxan]

Reply |
1: 157; 2: -63; 3: 70; 4: -76; 5: 233; 6: 144; 7: 168; 8: 164

Below are some compounds; for each one, tell me its melting point.
1. O=C(O)Cn1cncn1 [1h-1,2,4-triazole-1-acetic acid]
2. COP(=S)(OC)Oc1ccc([N+](=O)[O-])cc1 [O,O-Dimethyl O-(4-nitrophenyl) phosphorothioate]
3. O=C(/C(=N/Nc1cccnc1)C(=O)C(F)(F)F)c1cccs1

Reply |
1. 203
2. 36
3. 151

Below are some compounds; for each one, tell me its melting point.
1. [2H]C([2H])([2H])C(=O)C([2H])([2H])[2H] [(~2~H_6_)Propan-2-one]
2. CCC(=O)OC(=O)CC [Propanoic anhydride]

Reply |
[-93, -45]

Ask | Look up melting point of N#CCC(=O)c1ccccc1 [Cyanoacetophenone] and report it.
Reply | 83

* * *

Checkbox rule: melting point lower than 100 °C = rule met; melting point not lower than 100 °C = rule not met.

[[record]]
compound = "N[C@@H](Cc1ccc(F)c(F)c1)C(=O)O (racemic)"
category_label = "rule not met"

[[record]]
compound = "O=Cc1ccc2c(c1[N+](=O)[O-])C(=O)c1c(Cl)c(Cl)c(Cl)c(Cl)c1C2=O"
category_label = "rule not met"

[[record]]
compound = "Cn1cc[nH]c1=S"
category_label = "rule not met"


Ask | A record lists Cc1cc(N)n[nH]1 . Is its melting point below 100 °C?
Reply | rule met

Ask | A record lists Cc1cc[n+]([O-])cc1C#N [4-methylpyridine-3-carbonitrile 1-oxide] . Is its melting point below 100 °C?
Reply | rule not met

Ask | A record lists O=C(O)c1ccc(C(=O)O)c(Br)c1 . Is its melting point below 100 °C?
Reply | rule not met

Ask | A record lists CC(=O)/C(=N/Nc1cccc(C(F)(F)F)c1)C(=O)C(F)(F)F . Is its melting point below 100 °C?
Reply | rule met

Ask | A record lists c1ccc([C@H]2CN3CCSC3=N2)cc1 . Is its melting point below 100 °C?
Reply | rule not met

* * *

Test Readout: melting point (°C)
Answers are plain numbers, in °C.

[[record]]
molecule = "Cc1ccccn1"
reported = -70

[[record]]
molecule = "O=C(O)c1cc(Cl)ccc1Cl"
reported = 153

[[record]]
molecule = "O=[N+]([O-])c1ccc(Cl)cc1 [4-chloronitrobenzene]"
reported = 83.5

[[record]]
molecule = "ClC(Cl)c1ccc(C(Cl)Cl)cc1"
reported = 93


Field: next molecule
Ask | Look up melting point of CCC1(CCC(C)C)C(=O)NC(=O)NC1=O and report it.
Reply | 157

* * *

Field: melting point. Provide a value for each of the compounds that follow.
Give bare numbers, in °C.

Guide cases for melting point, answers given:
[[record]]
compound = "Cc1ccc(C(N)=O)cc1C [3,4-dimethylbenzamide]"
reported = 102

[[record]]
compound = "BrCCCBr [1,3-dibromopropane]"
reported = -34

[[record]]
compound = "CCC1(CCC(C)C)C(=O)NC(=O)NC1=O [Inmetal]"
reported = 156

[[record]]
compound = "CC12CCC3C(CCC4CC(OCc5ccccc5)CCC43C)C1CCC2=O (stereo not given)"
reported = 220


Ask | Look up melting point of Oc1cccc(Cl)c1Cl [2,3-Dichlorophenol] and report it.
Reply | 56

* * *

Checkbox rule: melting point lower than 100 °C = label 1; melting point not lower than 100 °C = label 0.

[[record]]
compound = "NS(=O)(=O)c1cc(C(=O)O)c(NCc2ccco2)cc1Cl [Furosemide]"
category_label = "label 0"

[[record]]
compound = "CC(C)(C)c1cccc(O)c1"
category_label = "label 1"

[[record]]
compound = "O=C(/C=C/c1ccc([N+](=O)[O-])cc1)c1ccccc1"
category_label = "label 0"


Ask | A record lists CC1=C(C#N)c2ccccc2C1 . Is its melting point below 100 °C?
Reply | label 1

Ask | A record lists NNC(=O)NN [carbohydrazide] . Is its melting point below 100 °C?
Reply | label 0

Ask | A record lists O=C(Cl)c1cccc(C(=O)Cl)c1 [isophthaloyl dichloride] . Is its melting point below 100 °C?
Reply | label 1

Ask | A record lists Sc1nc2ccccc2o1 . Is its melting point below 100 °C?
Reply | label 0
